assay: physchem; settings: DHFR enzymatic assay medium with 5% DMSO, 37 °C, aqueous with cosolvent or surfactant or cyclodextrin, kinetic from dmso stock
result type: solubility

- compound structure: "CCc1nc(N)nc(N)c1-c1ccc(Cl)cc1"
  result type: "solubility"
  measured value: "> 1000 µM"

* * *

assay: Apoptosis assay (FITC annexin V / propidium iodide flow cytometry); format: cell-based; settings: human; U3A cells, 6 h time point, same treatment as ATP assay; read-out: viable cells

- compound structure: "CCc1nc(N)nc(N)c1-c1ccc(Cl)cc1"
  viability at 6 h, 10 μM: "~100%"

* * *

assay: Solubility limit of folic acid in cell experiments; format: physicochemical; settings: culture media; read-out: maximum concentration testable because of solubility limitations

- compound structure: "Nc1nc2ncc(CNc3ccc(C(=O)N[C@@H](CCC(=O)O)C(=O)O)cc3)nc2c(=O)[nH]1"
  unit of measure: "µg/mL"
  solubility: 10
